Where do these numbers come from? They come from patent US11214803B2.

system: Yap1 mRNA; experiment: Antisense inhibition of human Yap1 in A-431 cells by cEt gapmers, single dose (Example 4, RTS4814); assay type: cell-based; details: Table 17; A-431 cells, 5,000 cells per well, free uptake, 2,000 nM, approximately 48 hours; RTS4814; normalized to RIBOGREEN; Yap1 mRNA relative to untreated control cells
Strand notation (5' to 3'): a small letter for the sugar, then the base; units joined by * are phosphorothioate-linked, units joined directly phosphodiester-linked; [ ] holds rarer units or linkages, { } end groups; capitals alone tell only the bases. k = constrained ethyl (cEt); [5mC] = 5-methylcytosine; d = 2'-deoxy (DNA)
property.measured: YAP1 (% UTC)
Answer with the number, then the unit.

substance	property.measured	result
1074403 (antisense kG*k[5mC]*kT*dT*dA*dT*dG*dG*dA*dA*dA*dT*dT*kT*k[5mC]*k[5mC]) [Compound 1074403]	YAP1 (% UTC)	9 % UTC

Let us move to another entry and its YAP1 (% UTC).
Ask | Identify measured YAP1 (% UTC) associated with 1074371 (antisense kG*kT*kT*dG*dA*dT*dA*dG*dT*dA*dT*d[5mC]*dA*k[5mC]*k[5mC]*kT) [Compound 1074371]
Reply | 31 % UTC
